Quick reference for melting point among some compounds

compound="CN(c1cccc2cc(C3=NCC(CC(N)=O)S3)[nH]c12)S(=O)(=O)c1ccccn1 (single isomer, unassigned) [Example 337]" meas_value="149 to 150 °C"
compound="Cc1ccc(N(C)S(=O)(=O)c2cccs2)c2[nH]c(-c3ncc(CN4CCC(O)C4)s3)cc12 (stereo not shown) [Example 251]" meas_value="190 to 191 °C"
compound="CN(c1cc(OC(F)(F)F)cc2cc(C3=NCC(CC(N)=O)S3)[nH]c12)S(=O)(=O)c1cccs1 (stereo not shown) [Example 384]" meas_value="186 to 187 °C"

Ask: Please give the documented melting point of COc1ccccc1S(=O)(=O)N(C)c1cccc2cc(C3=NCC(CC(=O)O)S3)[nH]c12 (stereo not shown) [Example 307]
Reply: 197 to 198 °C

Ask: Please give the documented melting point of O=S(=O)(Nc1cccc2cc(C3=NCC(CCO)S3)[nH]c12)c1cccs1 (stereo not shown) [Example 295]
Reply: 156 to 158 °C

Ask: Please give the documented melting point of COc1ccccc1S(=O)(=O)N(C)c1cccc2cc(C3=NCC(CC(N)=O)S3)[nH]c12 (stereo not shown) [Example 308]
Reply: 227 to 228 °C

Ask: Please give the documented melting point of CN(c1cccc2cc(C3=NCC(CC(N)=O)S3)[nH]c12)S(=O)(=O)c1ccccn1 (stereo not shown) [Example 338]
Reply: 148 to 149 °C

###

# study target: GST-hLGK1 (human liver GK) (Homo sapiens)
# Sequence (P35557 1-464 isoform P35557-3): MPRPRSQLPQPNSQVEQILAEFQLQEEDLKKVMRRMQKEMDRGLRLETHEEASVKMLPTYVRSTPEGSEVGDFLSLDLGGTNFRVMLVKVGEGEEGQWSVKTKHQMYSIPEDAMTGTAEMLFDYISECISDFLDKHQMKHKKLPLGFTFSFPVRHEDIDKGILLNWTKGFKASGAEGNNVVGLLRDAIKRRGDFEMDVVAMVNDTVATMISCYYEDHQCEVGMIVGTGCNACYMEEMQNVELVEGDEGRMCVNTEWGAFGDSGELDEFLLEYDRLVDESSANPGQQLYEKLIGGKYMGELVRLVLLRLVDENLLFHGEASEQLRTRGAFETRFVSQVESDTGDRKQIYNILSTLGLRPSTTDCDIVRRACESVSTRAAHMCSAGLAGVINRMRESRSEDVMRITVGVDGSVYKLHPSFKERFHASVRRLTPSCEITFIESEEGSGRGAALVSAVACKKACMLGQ
# test description: Determination of GK activity value (GST-hLGK1, Mant-ATP, capillary electrophoresis)
# condition details: glucokinase activation; GST-hLGK1, D-glucose, 37° C. for 60 min; concentration at midpoint between maximum activity value and control group activity value
# Description: Plasmid DNA to be used for the expression of a protein (GST-hLGK1) containing GST (Glutathione S-transferase) added to the amino terminal of human liver GK in Escherichia coli was prepared as follows. […] As a control group, the reaction rate was calculated in the same manner as above except that “solution in 50% dimethyl sulfoxide (without test compound)” was used instead of “solution of test compound in 50% dimethyl sulfoxide”. […]
pEC50: −log10 of the molar value.
assay endpoint: pEC50

molecule="CN(C)C(=O)CN1CCN(Cc2cnc(-c3cc4cccc(N(C)S(=O)(=O)c5cccs5)c4[nH]3)s2)CC1 [Example 10, ditrifluoroacetate]" assay_endpoint=pEC50 meas_value=6.68
molecule="COCCOc1cc(N(C)S(=O)(=O)c2ccccn2)c2[nH]c(C3=NCC(CN4CC[S+]([O-])CC4)S3)cc2c1 (single isomer, unassigned) [Example 398]" assay_endpoint=pEC50 meas_value=6.68
molecule="COCCOc1cc(N(C)S(=O)(=O)c2ccccn2)c2[nH]c(C3=N[C@H](CO)CS3)cc2c1 [Example 253]" assay_endpoint=pEC50 meas_value=6.68

P. CN(c1cccc2cc(C3=NCC(C)(CCN4CCOCC4)S3)[nH]c12)S(=O)(=O)c1cccs1 (stereo not drawn) [Example 200]
Q. COCCOc1cc(N(C)S(=O)(=O)c2ccccn2)c2[nH]c(C3=NCC(CN4CCS(=O)(=O)CC4)S3)cc2c1 (single isomer, unassigned) [Example 528]
R. CN(c1cccc2cc(C3=NCC4(CCN(CC(N)=O)CC4)S3)[nH]c12)S(=O)(=O)c1cccs1 [Example 414]
Ask: Hey, can you sort those molecules up there by pEC50, smallest first? Reply: labels, ordered per the request.
Reply: Q, P, R
(Q: 6.59, P: 7.21, R: 7.43)
